Entry source: the supplement of paper PMC9170038

Tested on: MS2 coat protein
Test: apparent KD of MS2 coat protein; designed switch direction (-1 OFF switch, 1 ON switch): -1; higher = weaker reporter binding
Details: input ligand: FMN 200 uM
Answer each item with its documented apparent KD of MS2 coat protein.
One number for each entry, in nM.

Give apparent KD of MS2 coat protein for all sequences that follow.
1. CCAACGUGAGGAUAUGCAAUGCUAGCGGGAUCUUCUCUCCAACAUGAGGAUCACCCAUGUAGAAGGCGCUGUUG [Eternabot (L1) Solution 38] (Eterna round: R97, puzzle: Exclusion 2)
2. CCGGAAAGGAAGGAUAUGCUAGACGAAAGUCUAGCAGAAGGUCCUACAUGAGGAUCACCCAUGUGUCCUCCCGG [Eli x6 4.08] (Eterna round: R97, puzzle: Exclusion 6)
3. UGAUCUAGCGGAGGAUAUACAUGAGGAUCACCCAUGUAUACUCUAUGACCGUAGUCGUGGAGCGUGUAGAAGGCCGCUAGAUCU [JL ENG2 3.76] (Eterna round: R96, puzzle: Exclusion NG 2)
4. GGAUUACAUGAGGAUCACCCAUGUCAGGAUAUACGAUCAUAUGCCGAAAGGCAUAUGAGUAGAAGGGACAAUAU [AK-MS2ROC-r4-exclusion1-2.0] (Eterna round: R97, puzzle: Exclusion 1)
5. GGAAGAAAGCGAGGAUAUCGAUAAGAAGAAGAAGAUAAGGUGACAUGAGGAUCACCCAUGUAAUACGAGAAGGCGCGACCUGCG [i'd better go back to my homework] (Eterna round: R96, puzzle: Exclusion NG 2)
6. CACUUACAUGAGGAUCACCCAUGUGAGGAUAUCGUGACCAGACGAGAAGUCUAUGUCACGAGAAGGCACUUGGG [Exclusion 1 (Mod 2 solution 97 by Eternabot)] (Eterna round: R97, puzzle: Exclusion 1)

Return:
[198, 2270, 14.6, 46.2, 215, 114]

* * *

System: MS2 coat protein
Assay: apparent KD of MS2 coat protein; designed switch direction (-1 OFF switch, 1 ON switch): -1; higher = weaker reporter binding
Conditions: input ligand: FMN 200 uM
Answer each item with its documented apparent KD of MS2 coat protein.

Give apparent KD of MS2 coat protein for all sequences that follow.
1. CCGCUGUGAGGAUAUUAGUAGUAGUCAGAAAAGACUAUUACUGAGAAGGCACAUGAGGAUCACCCAUGUCGCGG [Mat - Exclusion 4 - Eli Mod - D49] (Eterna round: R97, puzzle: Exclusion 4)
2. AACUAGGCAGGAUAUACAUGAGGAUCACCCAUGUAAAUUUUUCGUUUAACUUGAAUGUGUAGAAGGGCCAUAAA [Ex3 #52] (Eterna round: R97, puzzle: Exclusion 3)
3. ACGAUGACUGAAAGAAGUCAAAAGACAUGAGGAUCACCCAUGUAGGAUAUGGCUACGAAAAGUAGUCAGAAGGACAAGUCAUCA [Omei Exc(NG) 3 Av4] (Eterna round: R96, puzzle: Exclusion NG 3)

Return:
39.7 nM
23.3 nM
10.1 nM

* * *

System: MS2 coat protein
Assay: apparent KD of MS2 coat protein, switch ON state; designed switch direction (-1 OFF switch, 1 ON switch): -1; higher = weaker reporter binding
Conditions: FMN input: 0 or 200 uM; Eterna round: R93 (includes R88 designs)
Answer each item with its documented apparent KD of MS2 coat protein.
One number for each entry, in nM.

[[record]]
residue_string = "AGGAAACAUGAGGAUCACCCAUGUGAGGAUAUAGAAAAGAAAAGAAAAGAAAGAAGAACUAGAAGGUACAAGAA [Menkauhor Kaiu]"
endpoint_result = 21

[[record]]
residue_string = "AGGGAGUGAGGAUAUGCGAAAGAAAAAGAAGGAAAAAAAAAGCAGAAGGUACAUGAGGAUCACCCAUGUAAAAA [milkweed 7]"
endpoint_result = 26.5

[[record]]
residue_string = "AGAACGUCAGGAUAUCGAACAACAAGUAAAUAGAGAAGAAGCGAGAAGGGACAUGAGGAUCACCCAUGUAAGAA [e4-3]"
endpoint_result = 62.5

[[record]]
residue_string = "AAGAUGUAAGGAUAUGCUGCUCGUCACAAAAGUGAUGAGUAGCAGAAGGUACAUGAGGAUCACCCAUGUAAAGA [JL eternac mod 10]"
endpoint_result = 31.5

[[record]]
residue_string = "AAAAAACAUGAGGAUCACCCAUGUGAGGAUAUCUGUAUCCAAAAGGAAGUGUAGGAUCGGAGAAGGCACUAGGA [Banishment 1 - Jieux - Exclusion 1]"
endpoint_result = 36.5


Give apparent KD of MS2 coat protein for all sequences that follow.
1. AAAAAUCGAGGAUAUACAUGAGGAUCACCCAUGUUGGAAAACGAUUACACAAAAGAAAGUAGAAGGCGAUAAAA [Ex 3 May 21]
2. AAAACGUGAGGAUAUGCACCAAAAAAGGUAAUUCGGGUACGACAUGAGGAUCACCCAUGUAGAAGGCACGAAAA [Frodo Flailing 12 - Jieux - Exclusion 2]
3. AAAAAACAUGAGGAUCACCCAUGUGAGGAUAUCGAAAAGUCAAAGAAAAAGACGAAAACGAGAAGGCACAAAAA [Mat - Mod of Eli 2]

Return:
1. 16.5
2. 29.9
3. 28.1

Give apparent KD of MS2 coat protein for all sequences that follow.
1. AAGGGACAUGAGGAUCACCCAUGUUAGGAUAUGCUAUGGAAAAUAAAAUAAAAACAUAGCAGAAGGAACAAAAA [Mat - Exclusion 1 - Eli mod - D36]
2. AAGAACAGAGGAUAUACAAAAUAAAAGAAAAGAAAGAAAGAACAUGAGGAUCACCCAUGUAGAAGGCUGAAGAA [Sonbef]
3. AAAUCAGUAGGAUAUACGAUUUUAUGCUAGAUAGAGGAACCACAUGAGGAUCACCCAUGUAGAAGGACUAGAUA [EX2 Malc#24]
4. CCUACGUGAGGAUAUGCGGAUAACACGUUAGACAAAUAGACGCAGAAGGCACAUGAGGAUCACCCAUGUGAACC [JR_Exc004_Sub317]
5. AAGAAACGAGGAUAUACAUGAGGAUCACCCAUGUAAAAGAAAGAAAAGGGAAAGAAAAGUAGAAGGCGUAAGAA [Usermaatre-sekheperenre Ramesses V]
6. AGGAAACAUGAGGAUCACCCAUGUCAGGAUAUUUGAAAGAAAAGAAAAGAAAGAAGAAGAAGAAGGGACAAGAA [Narmer]
7. AACAUGUCAGGAUAUAAAAGAAAAGAAAAGAAAGAAAAGAAUUAGAAGGGACAUGAGGAUCACCCAUGUAAGAA [EteRNA is fun!]

Return:
43.2
28.2
14.5
21.9
30.4
27.6
33

Enquiry: Name the recorded apparent KD of MS2 coat protein of the item CUCAUGUCAGGAUAUGUAGCAUGAUACGAAAGUAUCAUGCUACAGAAGGGACAUGAGGAUCACCCAUGUCAAAA [Ex4: 943] in your answer.
Return: 22.1

* * *

Tested on: MS2 coat protein
Assay: apparent KD of MS2 coat protein; designed switch direction (-1 OFF switch, 1 ON switch): 1; higher = weaker reporter binding
Conditions: Eterna round: R95; input ligand: FMN 200 uM
Answer each item with its documented apparent KD of MS2 coat protein.
Numbers only, in nM.

Reference set (3 entries):
[[record]]
residue_string = "AUAAGUUCGAUGCUCGUCUCUCCGUACAAACAUGAGGAUCACCCAUGUGAUUAGGCAGUAGCCCAAUCAGUAUGGCC [Ariusveri] (puzzle: Sensor for hsa-mir-208a)"
property_measured = "apparent KD of MS2 coat protein"
unit_name = "nM"
endpoint_result = 38.7

[[record]]
residue_string = "AUAAAACAUGAGGAUCACCCAUGUCAACAAAGUCGAGGAUAUGGGCAAAUAAAAUAAGAACCAGAAGGCGAUUAAU [salish99_ss1_r3_035] (puzzle: Same State 1)"
property_measured = "apparent KD of MS2 coat protein"
unit_name = "nM"
endpoint_result = 23.4

[[record]]
residue_string = "AUAAGUUUGAUGCUCGUCUCUCCGUACGGACAUGAGGAUCACCCAUGUAGUCGGGAAGUAGCCCGGCCAGUAUGGCC [Soveerre] (puzzle: Sensor for hsa-mir-208a)"
property_measured = "apparent KD of MS2 coat protein"
unit_name = "nM"
endpoint_result = 32.6


Give apparent KD of MS2 coat protein for all sequences that follow.
1. GAGGAUGAACUACAGGAUAUAUAGCAGAUGACAUGAGGAUCACCCAUGUAAGAGAAAGGAGGGAGAUAGAAGGGUAUGGGAGGUG [JR_SS2_Sub037] (puzzle: Same State 2)
2. UCUUGGUUUUUGCUCGUUUUUUGUGUUGAACAUGAGGAUCACCCAUGUAUUGUACAAUCCGGUUUGAUGAUGGUCCA [JMF 47] (puzzle: Sensor for hsa-mir-208a)
3. UAGACAAGCUUUAUGUUCUUCCUUUUCCUACAUGAGGAUCACCCAUGUAGUCUGUCGAUUGAGAGAGUAGUUGAGAA [JR_SHM208A_Sub024] (puzzle: Sensor for hsa-mir-208a)
4. UACAAUCUAUCUGAGGAUAUCAUGAAUUAUACAUGAGGAUCACCCAUGUGCAGGAAAACUGCAUAUGAGAAGGCAGAUAGAUUGU [salish99_ss2_r3_062] (puzzle: Same State 2)
5. AGUCCAGCCUGAGCUGGACAAAAGCAUGUACAUGAGGAUCACCCAUGUUCAUGUACAGGCUUUUUGCUCGUCUUAAA [Zipper 52 - 7] (puzzle: Sensor for hsa-mir-208a)

Return:
[34.4, 81.7, 17.8, 63.4, 331]
